All figures here come from ChEMBL document CHEMBL5705900.

# System: Proto-oncogene tyrosine-protein kinase ROS (Homo sapiens), P08922 [L2026M]
# Sequence (P08922 whole entry L2026M): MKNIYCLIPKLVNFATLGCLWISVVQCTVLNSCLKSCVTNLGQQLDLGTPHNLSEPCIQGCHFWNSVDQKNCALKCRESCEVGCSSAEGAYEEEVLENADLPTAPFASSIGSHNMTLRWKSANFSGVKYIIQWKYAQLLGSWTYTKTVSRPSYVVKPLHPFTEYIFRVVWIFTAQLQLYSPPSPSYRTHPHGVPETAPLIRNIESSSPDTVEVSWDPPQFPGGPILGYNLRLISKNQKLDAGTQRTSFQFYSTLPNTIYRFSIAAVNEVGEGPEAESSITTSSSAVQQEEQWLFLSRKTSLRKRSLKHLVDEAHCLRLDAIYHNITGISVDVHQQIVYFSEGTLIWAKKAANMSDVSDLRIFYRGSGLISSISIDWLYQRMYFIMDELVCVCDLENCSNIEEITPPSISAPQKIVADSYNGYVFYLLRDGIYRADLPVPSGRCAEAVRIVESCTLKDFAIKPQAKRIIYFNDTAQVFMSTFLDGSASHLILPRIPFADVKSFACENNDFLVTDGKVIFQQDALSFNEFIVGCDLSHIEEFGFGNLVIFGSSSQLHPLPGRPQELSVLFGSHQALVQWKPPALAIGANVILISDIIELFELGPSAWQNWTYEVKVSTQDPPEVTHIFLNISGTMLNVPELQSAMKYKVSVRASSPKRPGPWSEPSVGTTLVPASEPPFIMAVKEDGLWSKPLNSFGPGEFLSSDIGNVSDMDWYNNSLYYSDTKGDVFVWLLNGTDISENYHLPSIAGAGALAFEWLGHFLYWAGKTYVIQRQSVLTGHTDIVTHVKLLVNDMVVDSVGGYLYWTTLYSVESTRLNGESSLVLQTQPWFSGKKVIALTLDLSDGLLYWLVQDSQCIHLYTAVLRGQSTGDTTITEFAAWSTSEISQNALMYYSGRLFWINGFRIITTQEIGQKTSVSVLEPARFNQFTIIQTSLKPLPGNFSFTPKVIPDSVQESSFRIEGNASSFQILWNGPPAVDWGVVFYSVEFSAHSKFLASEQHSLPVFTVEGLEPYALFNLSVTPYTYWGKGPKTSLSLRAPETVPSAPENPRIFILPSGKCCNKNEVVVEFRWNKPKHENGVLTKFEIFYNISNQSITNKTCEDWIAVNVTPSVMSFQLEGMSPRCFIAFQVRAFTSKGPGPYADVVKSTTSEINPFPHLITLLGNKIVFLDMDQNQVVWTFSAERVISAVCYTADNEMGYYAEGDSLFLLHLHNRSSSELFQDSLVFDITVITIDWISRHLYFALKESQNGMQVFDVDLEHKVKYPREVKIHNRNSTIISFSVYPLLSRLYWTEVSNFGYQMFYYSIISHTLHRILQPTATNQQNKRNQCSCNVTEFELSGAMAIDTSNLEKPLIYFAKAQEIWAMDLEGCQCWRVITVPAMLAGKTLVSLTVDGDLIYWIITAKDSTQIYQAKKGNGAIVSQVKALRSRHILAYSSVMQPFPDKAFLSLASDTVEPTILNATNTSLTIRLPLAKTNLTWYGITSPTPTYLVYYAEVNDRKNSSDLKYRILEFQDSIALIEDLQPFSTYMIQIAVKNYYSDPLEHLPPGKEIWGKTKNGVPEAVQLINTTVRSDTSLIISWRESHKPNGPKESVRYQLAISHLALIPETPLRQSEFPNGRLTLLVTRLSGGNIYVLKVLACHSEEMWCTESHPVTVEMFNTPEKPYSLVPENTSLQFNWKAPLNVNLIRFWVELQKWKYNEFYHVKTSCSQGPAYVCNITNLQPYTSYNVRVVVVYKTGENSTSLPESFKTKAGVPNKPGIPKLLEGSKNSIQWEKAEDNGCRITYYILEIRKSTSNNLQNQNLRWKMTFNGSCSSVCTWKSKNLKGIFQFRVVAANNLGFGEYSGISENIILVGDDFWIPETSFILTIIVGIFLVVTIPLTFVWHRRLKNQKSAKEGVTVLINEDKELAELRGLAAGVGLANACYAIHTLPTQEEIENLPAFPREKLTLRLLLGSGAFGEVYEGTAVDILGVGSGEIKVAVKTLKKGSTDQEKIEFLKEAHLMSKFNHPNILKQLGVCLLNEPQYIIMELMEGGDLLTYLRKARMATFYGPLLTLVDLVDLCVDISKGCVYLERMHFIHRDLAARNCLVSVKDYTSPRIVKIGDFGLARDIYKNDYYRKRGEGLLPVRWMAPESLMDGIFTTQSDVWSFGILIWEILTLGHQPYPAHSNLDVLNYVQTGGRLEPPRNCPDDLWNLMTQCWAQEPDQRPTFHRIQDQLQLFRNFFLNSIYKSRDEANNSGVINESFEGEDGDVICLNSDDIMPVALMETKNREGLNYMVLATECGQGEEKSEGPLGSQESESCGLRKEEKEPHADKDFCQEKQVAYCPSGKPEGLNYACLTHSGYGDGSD
# assay_overview: Inhibition of recombinant human ROS1 L2026M mutant in presence of ATP by microfluidic mobility shift assay
# protocol_conditions: dose 0.001-1000 nM
observable: inhibition

COc1cc2c(Oc3ccc(NC(=O)C4(C(=O)Nc5ccc(F)cc5)CC4)cc3F)ccnc2cc1OCCCN1CCOCC1 [FORETINIB] :: Dose-Dependent Effect
CCc1cc2c(cc1N1CCC(N3CCOCC3)CC1)C(C)(C)c1[nH]c3cc(C#N)ccc3c1C2=O [ALECTINIB] :: Dose-Dependent Effect
C[C@@H](Oc1cc(-c2cnn(C3CCNCC3)c2)cnc1N)c1c(Cl)ccc(F)c1Cl [CRIZOTINIB] :: Dose-Dependent Effect
Cc1cc(Nc2ncc(Cl)c(Nc3ccccc3S(=O)(=O)C(C)C)n2)c(OC(C)C)cc1C1CCNCC1 [CERITINIB] :: Dose-Dependent Effect

---

# target_desc: H-2 class II histocompatibility antigen gamma chain/Proto-oncogene tyrosine-protein kinase ROS (Mus musculus)
# Sequence (Q78DX7 whole entry): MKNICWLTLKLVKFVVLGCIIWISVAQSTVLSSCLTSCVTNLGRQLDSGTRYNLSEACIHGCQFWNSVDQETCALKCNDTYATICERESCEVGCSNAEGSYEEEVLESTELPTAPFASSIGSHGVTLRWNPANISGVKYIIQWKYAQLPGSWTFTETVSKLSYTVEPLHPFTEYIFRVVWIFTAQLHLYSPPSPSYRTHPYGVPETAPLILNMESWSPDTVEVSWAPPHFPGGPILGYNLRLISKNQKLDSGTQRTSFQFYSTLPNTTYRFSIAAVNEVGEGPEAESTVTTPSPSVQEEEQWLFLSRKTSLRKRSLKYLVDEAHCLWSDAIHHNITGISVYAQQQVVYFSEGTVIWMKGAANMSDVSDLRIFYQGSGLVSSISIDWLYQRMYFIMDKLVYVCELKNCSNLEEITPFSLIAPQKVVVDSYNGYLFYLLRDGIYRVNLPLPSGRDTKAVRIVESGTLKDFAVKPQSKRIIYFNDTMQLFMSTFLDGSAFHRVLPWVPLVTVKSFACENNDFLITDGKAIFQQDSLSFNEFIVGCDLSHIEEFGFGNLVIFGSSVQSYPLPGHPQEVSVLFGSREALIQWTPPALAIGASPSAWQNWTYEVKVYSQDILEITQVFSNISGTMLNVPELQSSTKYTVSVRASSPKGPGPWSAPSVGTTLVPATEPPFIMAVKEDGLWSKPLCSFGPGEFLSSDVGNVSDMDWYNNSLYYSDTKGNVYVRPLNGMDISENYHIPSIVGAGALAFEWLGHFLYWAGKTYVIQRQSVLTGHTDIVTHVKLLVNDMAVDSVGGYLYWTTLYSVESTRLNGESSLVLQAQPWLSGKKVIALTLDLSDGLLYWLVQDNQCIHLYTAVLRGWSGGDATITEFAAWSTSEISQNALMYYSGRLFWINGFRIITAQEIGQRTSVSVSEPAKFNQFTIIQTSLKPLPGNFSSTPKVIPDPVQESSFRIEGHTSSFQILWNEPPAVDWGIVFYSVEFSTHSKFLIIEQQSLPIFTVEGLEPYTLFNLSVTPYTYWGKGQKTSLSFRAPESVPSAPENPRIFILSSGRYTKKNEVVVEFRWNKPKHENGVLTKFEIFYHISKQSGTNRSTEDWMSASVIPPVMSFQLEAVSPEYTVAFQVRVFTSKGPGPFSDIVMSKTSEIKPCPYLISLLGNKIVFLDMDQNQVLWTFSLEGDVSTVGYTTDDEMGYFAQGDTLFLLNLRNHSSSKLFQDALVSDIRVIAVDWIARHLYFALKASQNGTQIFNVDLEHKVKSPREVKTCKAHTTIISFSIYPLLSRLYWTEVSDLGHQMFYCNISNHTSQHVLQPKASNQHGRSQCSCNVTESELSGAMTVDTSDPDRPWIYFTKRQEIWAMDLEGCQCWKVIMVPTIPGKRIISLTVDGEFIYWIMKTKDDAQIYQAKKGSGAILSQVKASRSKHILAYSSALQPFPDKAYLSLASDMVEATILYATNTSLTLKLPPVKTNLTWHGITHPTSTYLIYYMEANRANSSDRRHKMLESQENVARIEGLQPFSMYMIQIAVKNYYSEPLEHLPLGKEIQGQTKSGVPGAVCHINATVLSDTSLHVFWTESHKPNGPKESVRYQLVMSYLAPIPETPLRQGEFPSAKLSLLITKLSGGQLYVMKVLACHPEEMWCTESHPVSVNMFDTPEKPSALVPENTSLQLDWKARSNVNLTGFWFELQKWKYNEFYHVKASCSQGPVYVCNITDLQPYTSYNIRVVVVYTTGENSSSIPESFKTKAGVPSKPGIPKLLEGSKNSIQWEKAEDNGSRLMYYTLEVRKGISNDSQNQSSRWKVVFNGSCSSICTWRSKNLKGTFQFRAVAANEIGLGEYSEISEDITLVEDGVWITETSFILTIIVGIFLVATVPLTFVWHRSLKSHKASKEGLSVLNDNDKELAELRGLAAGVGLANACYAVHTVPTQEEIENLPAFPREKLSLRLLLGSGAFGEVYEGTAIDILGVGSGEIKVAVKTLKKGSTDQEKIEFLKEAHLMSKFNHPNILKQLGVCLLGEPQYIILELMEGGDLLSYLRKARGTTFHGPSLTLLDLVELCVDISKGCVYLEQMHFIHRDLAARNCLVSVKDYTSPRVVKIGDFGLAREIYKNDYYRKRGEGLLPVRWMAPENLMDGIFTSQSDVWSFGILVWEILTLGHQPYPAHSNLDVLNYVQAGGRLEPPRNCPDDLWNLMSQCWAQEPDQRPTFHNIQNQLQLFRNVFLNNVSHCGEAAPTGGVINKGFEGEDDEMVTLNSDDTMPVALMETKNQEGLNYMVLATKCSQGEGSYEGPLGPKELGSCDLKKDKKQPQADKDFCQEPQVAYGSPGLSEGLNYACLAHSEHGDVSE
# Sequence (P04441 whole entry, further chain): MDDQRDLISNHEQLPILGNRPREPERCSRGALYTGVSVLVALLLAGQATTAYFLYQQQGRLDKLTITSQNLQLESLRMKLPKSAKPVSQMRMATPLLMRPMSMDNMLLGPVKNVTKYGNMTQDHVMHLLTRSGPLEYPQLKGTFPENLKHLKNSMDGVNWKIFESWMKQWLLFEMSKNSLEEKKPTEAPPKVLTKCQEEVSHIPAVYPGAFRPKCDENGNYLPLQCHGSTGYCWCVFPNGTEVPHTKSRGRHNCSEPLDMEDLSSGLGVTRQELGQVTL
# assay_overview: Inhibition of CD74-ROS1 expressed in mouse BaF3 cells assessed as inhibition of phosphorylated ROS1 incubated for 1 hr by ELISA analysis
# Assay type: cell-based
pIC50: −log10 of the molar value.
observable: pIC50

C[C@@H](Oc1cc(-c2cnn(C3CCNCC3)c2)cnc1N)c1c(Cl)ccc(F)c1Cl [CRIZOTINIB] :: 8.41
COc1cc2nccc(Oc3ccc(NC(=O)C4(C(=O)Nc5ccc(F)cc5)CC4)cc3)c2cc1OC [CABOZANTINIB] :: 8.82

A. Cc1cc(Nc2ncc(Cl)c(Nc3ccccc3S(=O)(=O)C(C)C)n2)c(OC(C)C)cc1C1CCNCC1 [CERITINIB]
B. COc1cc2c(Oc3ccc(NC(=O)C4(C(=O)Nc5ccc(F)cc5)CC4)cc3F)ccnc2cc1OCCCN1CCOCC1 [FORETINIB]
[ask] Of A and B , which shows the smaller pIC50 value? # respond with the chosen item's label
[reply] A
(A: 7.15, B: 8.42)

---

# target_desc: Golgi-associated PDZ and coiled-coil motif-containing protein/Proto-oncogene tyrosine-protein kinase ROS (Mus musculus, UniProt Q78DX7)
# Sequence (Q78DX7 whole entry, other chains not shown, the tested form may be a part, canonical isoform): as the sequence (Q78DX7 whole entry) above
# assay_overview: Inhibition of FIG-ROS1 long isoform fusion protein expressed in mouse NIH3T3 cells assessed as inhibition of phosphorylated ROS1 incubated for 1 hr by ELISA analysis
# Format: cell-based
observable: IC50 (nM)

1. C[C@@H](Oc1cc(-c2cnn(C3CCNCC3)c2)cnc1N)c1c(Cl)ccc(F)c1Cl [CRIZOTINIB]
2. Cc1cc(Nc2ncc(Cl)c(Nc3ccccc3S(=O)(=O)C(C)C)n2)c(OC(C)C)cc1C1CCNCC1 [CERITINIB]
[ask] Of 1 and 2 , which shows the smaller IC50 value? # respond with the chosen item's label
[reply] 1
(1: 41 nM, 2: 304 nM)

---

# target_desc: Proto-oncogene tyrosine-protein kinase ROS (Homo sapiens, UniProt P08922)
# Sequence (P08922 whole entry): as the sequence (P08922 whole entry L2026M) above, with M2026L counted along it
# assay_overview: Binding affinity to recombinant human ROS1 assessed as inhibition constant in presence of ATP by microfluidic mobility shift assay
observable: pKi
// pKi is dimensionless: -log10 of concentration (M)

Just so you know, measured pKi for CCc1cc2c(cc1N1CCC(N3CCOCC3)CC1)C(C)(C)c1[nH]c3cc(C#N)ccc3c1C2=O came out at 5.62
